Sourced from PubChem BioAssay AID1996

conditionSummary: buffer; pH 7.4; 200.0 µM
measuredQuantity: solubility kinetic (µg/mL)
A number alone suffices; assume µg/mL.

The molecule listed as O=C1Nc2ccccc2OCc2c1cccc2[N+](=O)[O-] shows solubility kinetic equal to 3.9

The molecule listed as Cc1cc(C)c(NC(=O)CN(C)CC(=O)Nc2cccc(S(=O)(=O)N(C)c3ccccc3)c2)c(C)c1.O=C(O)C(=O)O shows solubility kinetic equal to 14.3

The molecule listed as COC(=O)CCCN1C(=O)c2cccc3cccc(c23)C1=O shows solubility kinetic equal to 43.6

The molecule listed as COC(=O)c1sccc1NC(=O)c1ccccc1F shows solubility kinetic equal to 1

The molecule listed as CN(c1ccccc1C(=O)Nc1ccc2ccccc2c1)S(C)(=O)=O shows solubility kinetic equal to 48.6

The molecule listed as CN1CCCN(Cc2cccc3ccccc23)CC1 shows solubility kinetic equal to 24.7

The molecule listed as Fc1ccccc1Nc1nc2ccccc2o1 shows solubility kinetic equal to 16.9

The molecule listed as Cc1cc(C)c2c(N)c(C(=O)c3ccccc3Cl)sc2n1 shows solubility kinetic equal to 0.4

The molecule listed as CN(CC(=O)NC1CCCC1)S(=O)(=O)c1cccc(Cl)c1 shows solubility kinetic equal to 7.6

The molecule listed as COc1ccccc1C1CCN(c2cc(O)ccc2[N+](=O)[O-])CC1 shows solubility kinetic equal to 38.9

The molecule listed as COc1ccc(Cl)cc1C(=O)Nc1cccc2ncccc12 shows solubility kinetic equal to 2.2

The molecule listed as O=C(Nc1cccc(/C=C/c2ccccn2)c1)c1cc(Cl)ccn1 shows solubility kinetic equal to 2.1

The molecule listed as CCOc1cc(/C=C2\N=C(C)OC2=O)cc(Cl)c1OCC(=O)OC shows solubility kinetic equal to 23.1

The molecule listed as Cc1ccc(OCc2ccc(C(=O)Nc3cc(C)on3)o2)c([N+](=O)[O-])c1 shows solubility kinetic equal to 1.4

The molecule listed as CC(C)NC(=O)c1ccc(COc2ccc(C(C)(C)C)cc2)o1 shows solubility kinetic equal to 0.7

The molecule listed as CC(=O)Oc1cccc(-c2nc3ccccc3c(=O)o2)c1 shows solubility kinetic equal to 7.9

The molecule listed as Cc1cc(N2CCN(C(=O)c3cccs3)CC2)c(F)cc1[N+](=O)[O-] shows solubility kinetic equal to 1.5
